# Test protocol: Tacrolimus blood pharmacokinetics without and with omeprazole 20 mg or famotidine 20 mg in kidney transplant patients (CMIA, non-compartmental analysis)
# Assay type: in vivo, human
# Cond: human, whole blood, oral, group II, 6 h, FA 20 mg (day 2); read-out: C6
Measured attribute: concentration at 6 h (ng/mL)
Express it in ng/mL; write the number only.

Sure, the documented concentration at 6 h for "C=CC[C@@H]1/C=C(\C)C[C@H](C)C[C@H](OC)[C@H]2O[C@@](O)(C(=O)C(=O)N3CCCC[C@H]3C(=O)O[C@H](/C(C)=C/[C@@H]3CC[C@@H](O)[C@H](OC)C3)[C@H](C)[C@@H](O)CC1=O)[C@H](C)C[C@@H]2OC" is 11

====

# Test protocol: Tacrolimus blood pharmacokinetics without and with omeprazole 20 mg or famotidine 20 mg in kidney transplant patients (CMIA, non-compartmental analysis)
# Type: in vivo, human
# Cond: human, whole blood, oral, 0.0611 mg/kg, group I, 2 h, no OM (day 1); read-out: C2
Measured attribute: concentration at 2 h (ng/mL)
Express it in ng/mL; write the number only.

Sure, the documented concentration at 2 h for "C=CC[C@@H]1/C=C(\C)C[C@H](C)C[C@H](OC)[C@H]2O[C@@](O)(C(=O)C(=O)N3CCCC[C@H]3C(=O)O[C@H](/C(C)=C/[C@@H]3CC[C@@H](O)[C@H](OC)C3)[C@H](C)[C@@H](O)CC1=O)[C@H](C)C[C@@H]2OC" is 9.4

====

# Test protocol: Tacrolimus blood pharmacokinetics without and with omeprazole 20 mg or famotidine 20 mg in kidney transplant patients (CMIA, non-compartmental analysis)
# Type: in vivo, human
# Cond: human, whole blood, oral, 20 mg, group I, OM 20 mg (day 2); read-out: AUC0-6
Measured attribute: AUC(0-t) (ng·h/mL)
Express it in ng·h/mL; write the number only.

Sure, the documented AUC(0-t) for "C=CC[C@@H]1/C=C(\C)C[C@H](C)C[C@H](OC)[C@H]2O[C@@](O)(C(=O)C(=O)N3CCCC[C@H]3C(=O)O[C@H](/C(C)=C/[C@@H]3CC[C@@H](O)[C@H](OC)C3)[C@H](C)[C@@H](O)CC1=O)[C@H](C)C[C@@H]2OC" is 63.1

====

# Test protocol: Tacrolimus blood pharmacokinetics without and with omeprazole 20 mg or famotidine 20 mg in kidney transplant patients (CMIA, non-compartmental analysis)
# Format: in vivo, human
# Cond: human, whole blood, oral, 0.0611 mg/kg, group I, 6 h, no OM (day 1); read-out: C6
Measured attribute: concentration at 6 h (ng/mL)
Express it in ng/mL; write the number only.

Sure, the documented concentration at 6 h for C=CC[C@@H]1/C=C(\C)C[C@H](C)C[C@H](OC)[C@H]2O[C@@](O)(C(=O)C(=O)N3CCCC[C@H]3C(=O)O[C@H](/C(C)=C/[C@@H]3CC[C@@H](O)[C@H](OC)C3)[C@H](C)[C@@H](O)CC1=O)[C@H](C)C[C@@H]2OC [tacrolimus] is 9.94

====

# Test protocol: Tacrolimus blood pharmacokinetics without and with omeprazole 20 mg or famotidine 20 mg in kidney transplant patients (CMIA, non-compartmental analysis)
# Type: in vivo, human
# Cond: human, whole blood, oral; group I, OM 20 mg (day 2); read-out: AUC2-6
Measured attribute: AUC (ng·h/mL)
Express it in ng·h/mL; write the number only.

Sure, the documented AUC for "C=CC[C@@H]1/C=C(\C)C[C@H](C)C[C@H](OC)[C@H]2O[C@@](O)(C(=O)C(=O)N3CCCC[C@H]3C(=O)O[C@H](/C(C)=C/[C@@H]3CC[C@@H](O)[C@H](OC)C3)[C@H](C)[C@@H](O)CC1=O)[C@H](C)C[C@@H]2OC" is 44.3

====

# Test protocol: Tacrolimus blood pharmacokinetics without and with omeprazole 20 mg or famotidine 20 mg in kidney transplant patients (CMIA, non-compartmental analysis)
# Format: in vivo, human
# Cond: human, whole blood, oral, 0.0376 mg/kg, group II, 2 h, no FA (day 1); read-out: C2
Measured attribute: concentration at 2 h (ng/mL)
Express it in ng/mL; write the number only.

Sure, the documented concentration at 2 h for C=CC[C@@H]1/C=C(\C)C[C@H](C)C[C@H](OC)[C@H]2O[C@@](O)(C(=O)C(=O)N3CCCC[C@H]3C(=O)O[C@H](/C(C)=C/[C@@H]3CC[C@@H](O)[C@H](OC)C3)[C@H](C)[C@@H](O)CC1=O)[C@H](C)C[C@@H]2OC [tacrolimus] is 10.3

====

# Test protocol: Tacrolimus blood pharmacokinetics without and with omeprazole 20 mg or famotidine 20 mg in kidney transplant patients (CMIA, non-compartmental analysis)
# Format: in vivo, human
# Cond: human, whole blood, oral, 0.0376 mg/kg, group II, 6 h, no FA (day 1); read-out: C6
Measured attribute: concentration at 6 h (ng/mL)
Express it in ng/mL; write the number only.

Sure, the documented concentration at 6 h for "C=CC[C@@H]1/C=C(\C)C[C@H](C)C[C@H](OC)[C@H]2O[C@@](O)(C(=O)C(=O)N3CCCC[C@H]3C(=O)O[C@H](/C(C)=C/[C@@H]3CC[C@@H](O)[C@H](OC)C3)[C@H](C)[C@@H](O)CC1=O)[C@H](C)C[C@@H]2OC" is 10.8

====

# Test protocol: Tacrolimus blood pharmacokinetics without and with omeprazole 20 mg or famotidine 20 mg in kidney transplant patients (CMIA, non-compartmental analysis)
# Type: in vivo, human
# Cond: human, whole blood, oral, group I, 2 h, no OM (day 1); read-out: C2
Measured attribute: concentration at 2 h (ng/mL)
Express it in ng/mL; write the number only.

Sure, the documented concentration at 2 h for "C=CC[C@@H]1/C=C(\C)C[C@H](C)C[C@H](OC)[C@H]2O[C@@](O)(C(=O)C(=O)N3CCCC[C@H]3C(=O)O[C@H](/C(C)=C/[C@@H]3CC[C@@H](O)[C@H](OC)C3)[C@H](C)[C@@H](O)CC1=O)[C@H](C)C[C@@H]2OC" is 9.4

====

# Test protocol: Tacrolimus blood pharmacokinetics without and with omeprazole 20 mg or famotidine 20 mg in kidney transplant patients (CMIA, non-compartmental analysis)
# Format: in vivo, human
# Cond: human, whole blood, oral, 20 mg, group II, FA 20 mg (day 2)
Measured attribute: Cmax (ng/mL)
Express it in ng/mL; write the number only.

Sure, the documented Cmax for "C=CC[C@@H]1/C=C(\C)C[C@H](C)C[C@H](OC)[C@H]2O[C@@](O)(C(=O)C(=O)N3CCCC[C@H]3C(=O)O[C@H](/C(C)=C/[C@@H]3CC[C@@H](O)[C@H](OC)C3)[C@H](C)[C@@H](O)CC1=O)[C@H](C)C[C@@H]2OC" is 13.1

====

# Test protocol: Tacrolimus blood pharmacokinetics without and with omeprazole 20 mg or famotidine 20 mg in kidney transplant patients (CMIA, non-compartmental analysis)
# Assay type: in vivo, human
# Cond: human, whole blood, oral, 20 mg, group I, OM 20 mg (day 2), mean ± SD
Measured attribute: Cmax (ng/mL)
Express it in ng/mL; write the number only.

Sure, the documented Cmax for C=CC[C@@H]1/C=C(\C)C[C@H](C)C[C@H](OC)[C@H]2O[C@@](O)(C(=O)C(=O)N3CCCC[C@H]3C(=O)O[C@H](/C(C)=C/[C@@H]3CC[C@@H](O)[C@H](OC)C3)[C@H](C)[C@@H](O)CC1=O)[C@H](C)C[C@@H]2OC [tacrolimus] is 13.1

Values were extracted from paper PMC11024357.
